Reference source for all entries: the supplement of paper PMC10981050

system: OCI-AML2; assay: cell viability relative to vehicle control; higher = less cytotoxic; conditions: 10 µM; SRSF2 genotype: P95H/wt;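 also: after 48 h exposure read by CellTiter-Glo luminescence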
Mark true (1) for cell viability under 90%, false (0) if at or over.

                                   compound  class_label
0  CN[C@@H](C)C(=O)N[C@H](C(=O)N1CCC[C@H]1c1nc(C(=O)c2ccc(F)cc2)cs1)C1CCCCC1     true (1)
1  C[C@@H]1COC(Nc2ccc3ncnc(Nc4ccc(OCc5nccs5)c(Cl)c4)c3c2)=N1 [Varlitinib]     true (1)

Q) Dear reviewer, please state whether CC[C@@H](C)Nc1cc(C(=O)N[C@H]2C[C@H]3CC[C@@H](C2)N3c2ccc(C(=O)C3CC3)cn2)c(C)cc1C(N)=O has cell viability strictly beneath 90%.
A) true (1)

Q) Dear reviewer, please state whether Cc1cccc(N(C)C(=S)Oc2ccc3ccccc3c2)c1 [Tolnaftate] has cell viability strictly beneath 90%.
A) false (0)

Q) Dear reviewer, please state whether O=C(O)[C@H]1O[C@@H](Oc2cc3oc(-c4ccc(O)cc4)cc(=O)c3c(O)c2O)[C@H](O)[C@@H](O)[C@@H]1O [Scutellarin] has cell viability strictly beneath 90%.
A) false (0)
